Recorded koff for the following binders
# targetSystem: T1, soluble Homo sapiens CD131 comprising a C-terminal 6xHis tag (human, UniProt P32927 17-438)
# T1 construct: truncated after Ser438, C-terminal 6xHis; also called shCD131; shβc
# T1 sequence: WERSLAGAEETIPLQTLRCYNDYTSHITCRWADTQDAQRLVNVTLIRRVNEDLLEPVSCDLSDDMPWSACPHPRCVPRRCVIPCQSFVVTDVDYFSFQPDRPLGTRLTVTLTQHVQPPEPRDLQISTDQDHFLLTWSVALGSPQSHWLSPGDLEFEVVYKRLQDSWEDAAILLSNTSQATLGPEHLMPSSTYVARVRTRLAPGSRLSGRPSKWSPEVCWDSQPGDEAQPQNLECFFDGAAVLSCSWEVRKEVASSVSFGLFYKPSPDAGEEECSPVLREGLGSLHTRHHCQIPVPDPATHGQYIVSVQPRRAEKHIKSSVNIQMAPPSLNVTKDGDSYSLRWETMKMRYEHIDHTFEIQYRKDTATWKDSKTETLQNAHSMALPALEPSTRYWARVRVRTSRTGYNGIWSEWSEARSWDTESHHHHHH
# procedureSummary: SPR, Fab over captured shCD131
parameter: koff (s⁻¹)

- 9A2-VR39.22 Fab (Fab, V domains shown, recombinant Fab) VH: EVQLLESGGGLVQPGGSLRLSCAASGFTFQWYHVIWVRQAPGKGLEWVSSINGRGRVTYYADSVKGRFTISRDNSKNTLYLQMNSLRAEDTAVYYCARFYDSFFDIWGQGTMVTVSS VL: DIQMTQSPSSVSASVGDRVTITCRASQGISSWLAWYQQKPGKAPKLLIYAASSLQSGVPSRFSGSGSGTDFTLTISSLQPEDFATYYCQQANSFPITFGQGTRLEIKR: 0.000441
- 9A2-VR24.30 Fab (Fab, V domains shown, recombinant Fab) VH: EVQLLESGGGLVQPGGSLRLSCAASGFTFPWYRVHWVRQAPGKGLEWVSSIRSSGGFPYYNRRVKGRFTISRDNSKNTLYLQMNSLRAEDTAVYYCARFYDSFFDIWGQGTMVTVSS VL: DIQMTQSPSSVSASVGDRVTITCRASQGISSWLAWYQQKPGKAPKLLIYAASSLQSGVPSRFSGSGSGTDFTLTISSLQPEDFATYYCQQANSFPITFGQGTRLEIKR: 0.000464
- 9A2-VR24.98 Fab (Fab, V domains shown, recombinant Fab) VH: EVQLLESGGGLVQPGGSLRLSCAASGFTFPWYRVHWVRQAPGKGLEWVSSIRSSGGFPHYNSVVKGRFTISRDNSKNTLYLQMNSLRAEDTAVYYCARFYDSFFDIWGQGTMVTVSS VL: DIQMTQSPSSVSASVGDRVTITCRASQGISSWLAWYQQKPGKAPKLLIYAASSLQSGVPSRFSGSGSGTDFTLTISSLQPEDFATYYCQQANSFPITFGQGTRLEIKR: 0.000559
- 9A2-VR39.01 Fab (Fab, V domains shown, recombinant Fab) VH: EVQLLESGGGLVQPGGSLRLSCAASGFTFFWFHHVWVRQAPGKGLEWVSSINGRGRVTYYADSVKGRFTISRDNSKNTLYLQMNSLRAEDTAVYYCARFYDSFFDIWGQGTMVTVSS VL: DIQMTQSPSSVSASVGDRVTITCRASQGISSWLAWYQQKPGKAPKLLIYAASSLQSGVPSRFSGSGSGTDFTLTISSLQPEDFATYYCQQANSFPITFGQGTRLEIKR: 0.00031
- 9A2-VR39.109 Fab (Fab, V domains shown, recombinant Fab) VH: EVQLLESGGGLVQPGGSLRLSCAASGFTFMWYHHIWVRQAPGKGLEWVSSINGRGRVTYYADSVKGRFTISRDNSKNTLYLQMNSLRAEDTAVYYCARFYDSFFDIWGQGTMVTVSS VL: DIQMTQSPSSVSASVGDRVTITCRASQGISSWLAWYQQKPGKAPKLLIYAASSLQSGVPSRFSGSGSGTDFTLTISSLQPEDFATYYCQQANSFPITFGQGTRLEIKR: 0.00033
- 9A2-VR24.33 Fab (Fab, V domains shown, recombinant Fab) VH: EVQLLESGGGLVQPGGSLRLSCAASGFTFPWYRVHWVRQAPGKGLEWVSSIRSSGGFPYYNHKVKGRFTISRDNSKNTLYLQMNSLRAEDTAVYYCARFYDSFFDIWGQGTMVTVSS VL: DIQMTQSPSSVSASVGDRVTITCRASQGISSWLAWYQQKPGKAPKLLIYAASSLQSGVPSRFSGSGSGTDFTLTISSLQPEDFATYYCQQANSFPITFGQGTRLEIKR: 0.000472
- 9A2-VR39.177 Fab (Fab, V domains shown, recombinant Fab) VH: EVQLLESGGGLVQPGGSLRLSCAASGFTFSHYHMLWVRQAPGKGLEWVSSINGRGRVTYYALEYKKRFTISRDNSKNTLYLQMNSLRAEDTAVYYCARFYDSFFDIWGQGTMVTVSS VL: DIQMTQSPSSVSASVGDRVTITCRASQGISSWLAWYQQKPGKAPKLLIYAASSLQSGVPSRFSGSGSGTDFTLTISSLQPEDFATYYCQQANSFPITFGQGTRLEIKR: 0.000554
- 9A2-VR39.04 Fab (Fab, V domains shown, recombinant Fab) VH: EVQLLESGGGLVQPGGSLRLSCAASGFTFNWFQHIWVRQAPGKGLEWVSSINGRGRVTYYADSVKGRFTISRDNSKNTLYLQMNSLRAEDTAVYYCARFYDSFFDIWGQGTMVTVSS VL: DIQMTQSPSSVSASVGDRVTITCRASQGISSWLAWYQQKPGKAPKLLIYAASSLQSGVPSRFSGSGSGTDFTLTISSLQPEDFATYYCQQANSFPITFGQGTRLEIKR: 0.00117
- 9A2-VR24.97 Fab (Fab, V domains shown, recombinant Fab) VH: EVQLLESGGGLVQPGGSLRLSCAASGFTFPWYRVHWVRQAPGKGLEWVSSIRSSGGFPYYSLSVKGRFTISRDNSKNTLYLQMNSLRAEDTAVYYCARFYDSFFDIWGQGTMVTVSS VL: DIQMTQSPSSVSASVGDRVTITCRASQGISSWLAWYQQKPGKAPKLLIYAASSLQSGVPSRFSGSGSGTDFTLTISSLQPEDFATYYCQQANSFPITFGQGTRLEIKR: 0.000524
- 9A2-VR24.55 Fab (Fab, V domains shown, recombinant Fab) VH: EVQLLESGGGLVQPGGSLRLSCAASGFTFPWYRVHWVRQAPGKGLEWVSSIRSSGGFTYYNPSVKNRFTISRDNSKNTLYLQMNSLRAEDTAVYYCARFYDSFFDIWGQGTMVTVSS VL: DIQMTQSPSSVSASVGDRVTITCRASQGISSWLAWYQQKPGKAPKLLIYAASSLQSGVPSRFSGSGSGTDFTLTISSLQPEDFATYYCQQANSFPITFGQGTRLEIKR: 0.000942
